# Tested on: HCT116
# measurement-description: efficacy (maximum % inhibition of viability vs DMSO); higher = more cytotoxic
# setup-conditions: 72 h; ICRF193 200 nM
Where a name gives a salt, the structure may show the parent alone.
measurement-name: efficacy (%)
Field: numeric (%). Do not append units.

Query: Give a short answer stating reported efficacy for CN1CCCC(CC2c3ccccc3Sc3ccccc32)C1 (stereo unspecified) [Metixene hydrochloride] .
Response: 94.6

====

# Test system: HCT116
# setup-conditions: 72 h; ICRF193 200 nM
measurement-name: IC50 cell viability

A selection of reference data follows.
Query: Please look at this compound and report its IC50 cell viability: Cc1cccc([C@H](C)c2c[nH]cn2)c1C [Dexmedetomidine]
Response: > 45.8 µM

Query: Using the record for C[C@]12CCC3=C4CCC(=O)C=C4CC[C@H]3[C@@H]1CC[C@@]2(O)CC#N [Dienogest] , state its measured IC50 cell viability.
Response: > 45.8 µM

Query: Report IC50 cell viability for "CCCCC[C@H](O)C=C[C@H]1[C@@H](O)CC(=O)[C@@H]1CCCCCCC(=O)O"
Response: 23.1 µM

Query: Give IC50 cell viability for the following compound: C#C[C@]1(O)CC[C@H]2[C@@H]3CCC4=Cc5oncc5C[C@]4(C)[C@H]3CC[C@@]21C [Danazol]
Response: 20.6 µM

// below: IC50 cell viability requested for another compound
Query: Provide one value: measured IC50 cell viability of CC(C)(C#N)c1cc(Cn2cncn2)cc(C(C)(C)C#N)c1 [Anastrozole]
Response: > 45.8 µM

====

# Test system: HCT116
# setup-conditions: 72 h; ICRF193 200 nM
Structures can show the parent of a compound that is named as a salt.
Measured IC50 cell viability of individual entries

Query: Determine from records and report IC50 cell viability for CCN[C@H]1C[C@H](C)S(=O)(=O)c2sc(S(N)(=O)=O)cc21 [Dorzolamide hydrochloride]
Response: > 45.8 µM

Query: Give IC50 cell viability for c1ccc2c(c1)CCCC2C1=NCCN1 (stereo not drawn) [Tetrahydrozoline HCl]
Response: > 45.8 µM

Query: Supply measured IC50 cell viability of "CN(C)C(=S)SSC(=S)N(C)C" in your reply.
Response: 29.1 µM

Query: Please look at this compound and report its IC50 cell viability: CC(C)NC1CCn2c(=O)[nH]c3cccc(c32)C1O (stereo not drawn) [Zilpaterol·HCl]
Response: > 45.8 µM

Continuing:
Query: Read off the recorded IC50 cell viability for "O=C(O)c1nc(=O)[nH]c(=O)[nH]1"
Response: > 45.8 µM

Query: Respond only with IC50 cell viability recorded for "C=C1/C(=C\C=C2/CCC[C@]3(C)[C@@H]([C@H](C)CC[C@@H](O)C(C)C)CC[C@@H]23)C[C@@H](O)C[C@@H]1O"
Response: 20.6 µM

Query: Input Cn1nnnc1SCC1=C(C(=O)O)N2C(=O)[C@@H](NC(=O)[C@H](O)c3ccccc3)[C@H]2SC1 [CEFAMANDOLE SODIUM] , output reported IC50 cell viability.
Response: > 45.8 µM

Query: Write down IC50 cell viability measured for item C[N+]1(C)CCN(CC(O)(c2ccccc2)C2CCCCC2)CC1 (stereo not drawn) [Hexocyclium]
Response: > 45.8 µM

Query: Tell me its IC50 cell viability given CC(C1=C(CCN(C)C)Cc2ccccc21)c1ccccn1 (stereo in doubt) [(S)-(+)-Dimethindene maleate] as the entry.
Response: > 45.8 µM

Query: Tell me its IC50 cell viability given "O[C@H]1[C@H](O)[C@@H](O)[C@H](O)[C@@H](O)[C@H]1O" as the entry.
Response: > 45.8 µM

Query: Supply measured IC50 cell viability of "Cc1cc(NS(=O)(=O)c2ccc(N)cc2)no1" in your reply.
Response: > 45.8 µM

Query: Supply reported IC50 cell viability belonging to this compound: "c1ccc2c(c1)sc1ccccc12"
Response: > 45.8 µM

Query: Return value of IC50 cell viability for input CC(=O)NCc1c(I)c(NC(C)=O)c(I)c(C(=O)O)c1I [Iodamide] , no commentary.
Response: > 45.8 µM

Query: Please report the measured IC50 cell viability for CCCCCCCCCCCCCCCC(=O)OC[C@H](O)[C@H]1OC(=O)C(O)=C1O [L-Ascorbyl 6-palmitate]
Response: > 45.8 µM

Query: Determine from records and report IC50 cell viability for CC(=O)CC(c1ccc([N+](=O)[O-])cc1)c1c(O)c2ccccc2oc1=O (stereo not drawn)
Response: > 45.8 µM

Query: Hello, please tell me recorded IC50 cell viability for this one: C=CC[N+]1([C@H]2C[C@H]3[C@@H]4CC[C@H]5C[C@H](OC(C)=O)[C@@H](N6CCCCC6)C[C@]5(C)[C@H]4CC[C@]3(C)[C@H]2OC(=O)CC)CCCCC1 [Rapacuronium bromide]
Response: > 45.8 µM

Query: Please supply the value of reported IC50 cell viability for the item "CCCCCCCCCCCCCCCCCCCCCC(=O)Nc1ccn([C@@H]2O[C@H](CO)[C@@H](O)[C@@H]2O)c(=O)n1"
Response: > 45.8 µM

Query: # return recorded IC50 cell viability for input "CCCn1cnc2c1c(=O)n(CCCCC(C)=O)c(=O)n2C"
Response: > 45.8 µM

Query: Specify reported IC50 cell viability for the compound shown: CCCN(CCC)C(=O)C(CCC(=O)O)NC(=O)c1ccccc1 (stereo not drawn) [Proglumide]
Response: > 45.8 µM

Query: Please give measured IC50 cell viability of the following entry: CCCC(O)C(CC)CO (stereo not drawn)
Response: > 45.8 µM

Query: Supply reported IC50 cell viability belonging to this compound: CO[C@@H]1[C@@H](OC(N)=O)[C@@H](O)[C@H](Oc2ccc3c(O)c(NC(=O)c4ccc(O)c(CC=C(C)C)c4)c(=O)oc3c2C)OC1(C)C [Novobiocin sodium]
Response: > 45.8 µM

Query: Give recorded IC50 cell viability. COc1cc(N)cn[n+]1-c1ccccc1 [Amezinium methylsulfate]
Response: > 45.8 µM

Query: Tell me IC50 cell viability reported for O=C(O)CCCc1ccccc1 [Sodium 4-phenylbutyrate]
Response: > 45.8 µM

Query: Consider the compound CN1CCCN(C(c2ccccc2)c2ccc(Cl)cc2)CC1 (stereo not drawn) . State its measured IC50 cell viability.
Response: 29.1 µM

Query: Please list IC50 cell viability recorded for the compound Cc1cccc(C)c1NC(=O)CC12CCCN1CCC2 [Pilsicainide]
Response: > 45.8 µM

Query: Return IC50 cell viability for the following compound: "CCCCc1nc(Cl)c(CO)n1Cc1ccc(-c2ccccc2-c2nnn[nH]2)cc1"
Response: > 45.8 µM
